- Protocol notes: qHTS assay for re-activators of p53 using a Luc reporter: Hit Validation; further: nearly all actives have a fitted effect of over 75% in size
- Measurement parameters: p53-responsive luciferase reporter cells, luminescence, H1299 line expressing heat-sensitive Ala138Val p53; series mostly up to 46.1 µM
Results filed as inconclusive are left out. Activity calls are given as the source filed them. The call rests on the fitted dose curve; in most records, active means well fitted activation curve with a large enough effect; inconclusive means small, poorly fitted or top-dose-only effect; inactive means no such curve, though single readings can be large or run the other way.
Mark one answer only. Choices: yes = active, no = inactive

See these solved cases before continuing.
| Molecule | Class name |
| --- | --- |
| CCOCC(=O)Nc1nc2ccc(OCC)cc2s1 | yes |
| O=C(/C=C/c1cccs1)Nc1ccc(Br)cn1 | yes |
| N/C(=N\OC(=O)c1cc(Cl)ccc1Cl)c1ccccn1 | yes |
| Cc1cccc(-n2c(O)c(C=Nc3ccccc3N)c(=O)[nH]c2=O)c1 | no |
| COc1ccc(C(C)(C)C)cc1NC(=O)Nc1ccc2c(c1)OCO2 | no |

We now examine a further molecule.
*Q* For CCOC(=O)N(Cc1ccccc1)C(C(=O)O)C(C(=O)O)N(Cc1ccccc1)C(=O)OCC (stereo unspecified) , which call appears in the assay record?
*A* no
